Property: melting point; scope: individual compounds

COMPOUND: O=C(c1ccccc1)N1CCc2[nH]c3c(-c4ccccc4)cccc3c2CC1
melting point: 198 to 200 °C

COMPOUND: CC(C)(C)c1cc(C(=O)OCCC(=O)Oc2ccc(Cl)c([N+](=O)[O-])c2)cc(C(C)(C)C)c1O
melting point: 106 to 108 °C

COMPOUND: CC(Cc1ccc(O)cc1)NCC(O)c1cccc(Cl)c1 (centres undefined)
melting point: 50 to 55 °C

COMPOUND: COC(=O)CCCC#CCN1C(=O)c2ccccc2C1=O
melting point: 62 to 63 °C

COMPOUND: CCC1(C)NC(=O)C(c2c(C)cc(C)cc2C)C1=O (centres undefined)
melting point: 137 to 142 °C

COMPOUND: CC12CCC(=O)C=C1CCC1C2CCC2(C)C(n3cnc4ccccc43)=CCC12 (centres undefined)
melting point: 201 to 204 °C

COMPOUND: CC(C)CCOc1ccc(-c2c(Cl)c(CN3C(=O)CCC3=O)nc3sc4c(c23)CCNC4)cc1
melting point: 226 to 227 °C

COMPOUND: COc1cc(OC(C)(C)C(=O)O)c(-c2cccs2)cc1C=CC(=O)c1ccc(C(=O)O)cc1
melting point: 135 to 137 °C

COMPOUND: CCOC(=O)/C=C/C=C/C(=O)c1cc2c(cc1C)C(C)(C)CCC2(C)C
melting point: 101 to 102 °C

COMPOUND: O=C(N[C@@H](Cc1c[nH]c2ccccc12)C(=O)O)c1ccc(Cl)cc1
melting point: 100 to 102 °C

COMPOUND: COc1ccc(CNc2cc(Cl)c(N=CN(C)C)c(Cl)c2)cc1F
melting point: 138 to 140 °C

COMPOUND: CNC(=O)NS(=O)(=O)c1cc(CCNC(=O)c2cc(C(C)(C)C)ccc2OC)ccc1OC
melting point: 209 to 212 °C

COMPOUND: O=C(NCCCCCCNC(=O)N(O)Cc1ccccc1)N(O)Cc1ccccc1
melting point: 181 to 182 °C

COMPOUND: N=C(NO)C1(c2ccccc2Br)CC1
melting point: 164 to 167 °C

COMPOUND: NS(=O)(=O)c1cc2c(cc1Cl)C(=O)N(Cc1ccccn1)C2=O
melting point: 240 to 242 °C

COMPOUND: CCC#C[C@]1(C(F)(F)F)O[C@@H](c2ccccc2)C(=O)Nc2ccc(Cl)cc21 (relative stereo)
melting point: 198 to 199 °C

COMPOUND: Cc1nnc2n1-c1ccc(Br)cc1C(c1ccccn1)=NC2
melting point: 248 to 250 °C

COMPOUND: C#CCN(Cc1cc2c(=O)n(CCN(C)C)c(CN3CCCCC3)nc2cc1Cl)c1ccc(C(=O)NCc2cccnc2)cc1
melting point: 90 to 93 °C

COMPOUND: CCOC(=O)c1ccc(OCC(O)CC)cc1 (centres undefined)
melting point: 52 to 52.5 °C

----------
The compounds listed here are annotated with their melting point.

COMPOUND: CCOC(=O)c1cnn(-c2ccc(OC)cc2)c1N
melting point: 209 to 211 °C
//
COMPOUND: CCCCn1cnc2c(Oc3ccccc3)nc(Nc3ccc(OC)cc3OC)nc21
melting point: 97 to 99 °C
//
COMPOUND: CC(C=CO)c1ccc(-c2ccc(Cl)cc2)cc1 (stereo not given)
melting point: 130 to 132 °C
//
COMPOUND: COC(=O)c1ccc(Cc2cn(C/C=C/c3ccc4ccc(Cl)cc4n3)c3ccc([N+](=O)[O-])cc23)c(OC)c1
melting point: 158 to 160 °C
//
COMPOUND: CC(C#N)(c1ccc(Cl)cc1)c1ccc(-n2ncc(=O)[nH]c2=O)cc1Cl (stereo not given)
melting point: 235 °C
